B1: Peroxisome proliferator-activated receptor delta, residues 71 to 145; numbered along this chain, Q03181 (parent)
chain: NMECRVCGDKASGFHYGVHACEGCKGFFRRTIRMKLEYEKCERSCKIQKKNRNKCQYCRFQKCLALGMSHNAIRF

Variants of: B1
Test: abundance fitness (aPCA) (normalised: wild type 0, dead -1); higher = more abundant; growth selection in yeast, the domain comes from the species named
Details: Homo sapiens
abundance fitness for assorted variants
Give the figure only, with no unit attached.

{"columns": ["mutation.descriptor", "observed.result"],
 "data": [
  ["K40W", -0.348],
  ["C55L", -0.98],
  ["G17A", -0.465],
  ["H70N", 0.013],
  ["K50P", -0.089]
]}

(Q) I'd like to know its abundance fitness. The variant in question is "N51H"
(A) -0.071

(Q) I'd like to know its abundance fitness. The variant in question is "H15T"
(A) -0.174

(Q) I'd like to know its abundance fitness. The variant in question is "E3H"
(A) -0.027
